Cited source for all entries: patent US20210122814A1

G/D (fold bias) for assorted binders
# tgt: Cell-associated proTGFβ1 (hGARP-proTGFβ1 and hLRRC33-proTGFβ1)
# assay info: MSD-SET, hIgG4; Cell AVRG over ECM AVRG

Ab32 (antibody, V domains shown) VH: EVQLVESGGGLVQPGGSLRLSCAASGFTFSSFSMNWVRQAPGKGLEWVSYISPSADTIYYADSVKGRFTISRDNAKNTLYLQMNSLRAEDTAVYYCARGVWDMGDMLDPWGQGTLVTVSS VL: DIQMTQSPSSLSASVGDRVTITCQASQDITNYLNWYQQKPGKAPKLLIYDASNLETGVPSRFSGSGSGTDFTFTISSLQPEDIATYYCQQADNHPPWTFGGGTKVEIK	1.6 fold

Assign G/D (fold bias) to the following record: Ab33 (antibody, V domains shown) VH: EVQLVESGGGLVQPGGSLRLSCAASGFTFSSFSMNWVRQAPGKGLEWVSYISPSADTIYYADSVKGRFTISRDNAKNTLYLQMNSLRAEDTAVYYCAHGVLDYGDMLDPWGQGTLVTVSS VL: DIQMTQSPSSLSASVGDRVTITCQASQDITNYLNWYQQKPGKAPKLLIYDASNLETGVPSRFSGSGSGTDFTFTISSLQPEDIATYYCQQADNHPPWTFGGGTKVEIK
3 fold
